Tested on: Trichoderma viride
method: Antifungal activity against Trichoderma viride IAM 5061 treated for 72 hrs followed by sub-cultivated for 5 days by serial dilution method
Assay type: functional
# MFC per record follows
# unit: µM | format: bare number

Some solved cases for reference:
1. COc1cc(Cc2nnc(NC(C)C)s2)c(S(=O)(=O)N(C)C)cc1OC : 250
2. COc1cc(Cc2n[nH]c(=S)n2C)c(S(=O)(=O)N(C)C)cc1OC : 140
3. CCCNc1nnc(Cc2cc(OC)c(OC)cc2S(=O)(=O)N(C)C)o1 : 130
4. CCn1c(Cc2cc(OC)c(OC)cc2S(=O)(=O)N(C)C)n[nH]c1=S : 130

# molecule CCNc1nnc(Cc2cc(OC)c(OC)cc2S(=O)(=O)N(C)C)s1 ; its MFC = 130

# molecule CC(=O)N1CCN(c2ccc(OCC3COC(Cn4ccnc4)(c4ccc(Cl)cc4Cl)O3)cc2)CC1 (stereo not given) ; its MFC = 5700

# molecule COc1cc(Cc2n[nH]c(=O)n2C(C)C)c(S(=O)(=O)N(C)C)cc1OC ; its MFC = 70

====

System: Trichoderma viride
method: Antifungal activity against Trichoderma viride IAM 5061 treated for 72 hrs followed by sub-cultivated for 5 days by serial dilution method
Assay type: functional
readoutKind: MFC (µM)
# unit: µM | format: bare number

1. CNc1nnc(Cc2cc(OC)c(OC)cc2S(=O)(=O)N(C)C)o1 : 140
2. CNc1nnc(Cc2cc(OC)c(OC)cc2S(=O)(=O)N(C)C)s1 : 130

Please examine the following record next.
Log: Trichoderma viride, compound CCNc1nnc(Cc2cc(OC)c(OC)cc2S(=O)(=O)N(C)C)o1 , MFC = 30

====

Tested on: Staphylococcus aureus
method: Antibacterial activity against Staphylococcus aureus ATCC 6538 after 24 hrs by micro dilution method
Format: functional
measurementSetup: ATCC 6538, 24 h
readoutKind: MIC (µM)
# unit: µM | format: bare number

Some solved cases for reference:
1. CCCCNc1nnc(Cc2cc(OC)c(OC)cc2S(=O)(=O)N(C)C)o1 : 250
2. COc1cc(Cc2nnc(NC(C)C)s2)c(S(=O)(=O)N(C)C)cc1OC : 380
3. CCCNc1nnc(Cc2cc(OC)c(OC)cc2S(=O)(=O)N(C)C)o1 : 260
4. CNc1nnc(Cc2cc(OC)c(OC)cc2S(=O)(=O)N(C)C)o1 : 280
5. CCn1c(Cc2cc(OC)c(OC)cc2S(=O)(=O)N(C)C)n[nH]c1=S : 260

Log: Staphylococcus aureus, molecule CCCCn1c(Cc2cc(OC)c(OC)cc2S(=O)(=O)N(C)C)n[nH]c1=O , MIC = 250

Log: Staphylococcus aureus, molecule CCCn1c(Cc2cc(OC)c(OC)cc2S(=O)(=O)N(C)C)n[nH]c1=S , MIC = 500

Log: Staphylococcus aureus, molecule COc1cc(Cc2n[nH]c(=S)n2C(C)(C)C)c(S(=O)(=O)N(C)C)cc1OC , MIC = 240

Log: Staphylococcus aureus, molecule CNc1nnc(Cc2cc(OC)c(OC)cc2S(=O)(=O)N(C)C)s1 , MIC = 270

Log: Staphylococcus aureus, molecule COc1cc(Cc2nnc(NC(C)(C)C)o2)c(S(=O)(=O)N(C)C)cc1OC , MIC = 250

====

Test system: Bacillus cereus
method: Antibacterial activity against Bacillus cereus clinical isolate treated for 24 hrs followed by sub-cultivated for 72 hrs by micro dilution method
Format: functional
readoutKind: MBC (µM)
# unit: µM | format: bare number

1. COc1cc(Cc2n[nH]c(=S)n2C)c(S(=O)(=O)N(C)C)cc1OC : 540
2. COc1cc(Cc2nnc(NC(C)(C)C)o2)c(S(=O)(=O)N(C)C)cc1OC : 390
3. CCCCn1c(Cc2cc(OC)c(OC)cc2S(=O)(=O)N(C)C)n[nH]c1=S : 480
4. CCCn1c(Cc2cc(OC)c(OC)cc2S(=O)(=O)N(C)C)n[nH]c1=S : 500
5. CCCCNc1nnc(Cc2cc(OC)c(OC)cc2S(=O)(=O)N(C)C)s1 : 240
6. CNc1nnc(Cc2cc(OC)c(OC)cc2S(=O)(=O)N(C)C)s1 : 270

# compound CCCNc1nnc(Cc2cc(OC)c(OC)cc2S(=O)(=O)N(C)C)o1 ; its MBC = 260

# compound CNc1nnc(Cc2cc(OC)c(OC)cc2S(=O)(=O)N(C)C)o1 ; its MBC = 280

# compound CC1(C)S[C@@H]2[C@H](NC(=O)[C@H](N)c3ccccc3)C(=O)N2[C@H]1C(=O)O [AMPICILLIN] ; its MBC = 370

# compound CCCNc1nnc(Cc2cc(OC)c(OC)cc2S(=O)(=O)N(C)C)s1 ; its MBC = 500
